Target: human 5-HT4(b) receptors (Homo sapiens)
Construct: expressed in transfected cells
Experiment: Adenylyl cyclase assay in membranes of HEK293 cells stably expressing human 5-HT4(b) receptors
Type: biochemical
Conditions: where n = 2, ± half-range, read-out: Antagonist pKb value (pKb ± SEM) (converted)
Protocol: The development of HEK293 cell lines stably expressing human 5-HT4(b) receptors was described and published previously (Bach et al. 2001). […] Adenylyl cyclase activity was measured by determining conversion of [α-^32P]ATP to [^32P]cAMP in membranes prepared in STE by homogenization of cells grown and washed as described above in a Dounce glass-glass homogenizer by 10 strokes with the tight-fitting pestle. […]
readout-name: Kb (nM)
Number only, in nM; omit the unit.

O=C(O)CCCN1CCC(COC(=O)c2cccc3ccccc23)CC1 [Example 26]    69.2
O=C(CCCN1CCC(CNC(=O)c2c3n(c4ccccc24)CCCO3)CC1)OCC(Cl)(Cl)Cl [Example 51]    0.537
O=C(NCC1CCN(Cc2ccccc2)CC1)c1c2n(c3ccccc13)CCCO2 [Example 47]    0.427

Next compound, please.
Notebook: pull reported Kb for human 5-HT4(b) receptors (Homo sapiens), entry CC(C)n1nc(C(=O)NC2CCN(Cc3ccc(C(=O)O)cc3)CC2)c2ccccc21 [Example 36]
1150

* * *

Here the recorded log10(Kb) is given for each entry.
Biological target: human 5-HT4(b) receptors (Homo sapiens, UniProt Q13639)
Construct: expressed in transfected cells
Sequence (Q13639 whole entry): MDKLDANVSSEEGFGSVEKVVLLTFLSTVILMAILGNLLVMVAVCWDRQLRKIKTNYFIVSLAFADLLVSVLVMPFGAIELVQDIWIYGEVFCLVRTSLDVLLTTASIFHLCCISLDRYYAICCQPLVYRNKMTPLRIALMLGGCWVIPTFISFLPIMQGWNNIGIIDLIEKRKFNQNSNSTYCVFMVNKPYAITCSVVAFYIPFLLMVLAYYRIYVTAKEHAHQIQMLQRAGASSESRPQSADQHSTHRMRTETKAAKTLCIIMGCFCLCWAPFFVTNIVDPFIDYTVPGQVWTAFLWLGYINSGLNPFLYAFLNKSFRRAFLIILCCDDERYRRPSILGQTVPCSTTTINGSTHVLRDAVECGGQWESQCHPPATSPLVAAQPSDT
Test: Adenylyl cyclase assay in membranes of HEK293 cells stably expressing human 5-HT4(b) receptors
Format: biochemical
Details: where n = 2, ± half-range, read-out: Antagonist pKb value (pKb ± SEM) (converted)
Hi team, quick reminder: these entries are log10 of Kb (nM).

O=C(O)CCCN1CCC(CNC(=O)c2c[nH]c3ccccc23)CC1    4.45
CCOC(=O)CCCN1CCC(CNC(=O)c2c3n(c4ccccc24)CCCO3)CC1    0.19

Look at this compound and give its reported log10(Kb). CCOC(=O)CCCN1CCC(COC(=O)c2cccc3ccccc23)CC1
0.82

Quick one: log10(Kb) for CCOC(=O)CCCN1CCC(NC(=O)c2nn(C(C)C)c3ccccc23)CC1 ?
2.25

Quick check: log10(Kb) of COC(=O)CCCCCN1CCC(CNC(=O)c2c3n(c4ccccc24)CCCO3)CC1 ?
-0.12

So what does the record say about log10(Kb) for CCOC(=O)CCCN1CCC(CNC(=O)c2cc(Cl)c(N)cc2OC)CC1 ?
1.82

* * *

Each entry below lists one item and its recorded log10 Kd value.
Target: human 5-HT7(a) receptors (Homo sapiens)
Construct: expressed in transfected cells
Sequence (P34969 1-445 isoform P34969-2): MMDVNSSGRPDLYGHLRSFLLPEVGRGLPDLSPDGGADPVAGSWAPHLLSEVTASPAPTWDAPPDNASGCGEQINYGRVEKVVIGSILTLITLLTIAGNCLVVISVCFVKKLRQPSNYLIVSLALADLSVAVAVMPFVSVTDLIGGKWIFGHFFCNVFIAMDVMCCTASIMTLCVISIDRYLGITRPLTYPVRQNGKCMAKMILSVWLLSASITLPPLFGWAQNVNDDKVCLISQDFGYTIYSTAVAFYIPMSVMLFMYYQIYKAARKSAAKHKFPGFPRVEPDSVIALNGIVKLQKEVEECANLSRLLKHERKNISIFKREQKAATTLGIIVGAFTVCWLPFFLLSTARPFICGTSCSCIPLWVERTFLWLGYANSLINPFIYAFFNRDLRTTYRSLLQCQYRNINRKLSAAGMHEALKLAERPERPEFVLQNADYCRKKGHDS
Assay: Radioligand binding assay with [3H]5-CT, membranes of HEK293 cells stably expressing human 5-HT7(a) receptors
Conditions: 5-HT7 ligands, values are pKd ± half-range, read-out: Binding affinity (pKd value) (pKd ± SEM) (converted)
Experimental: Binding assays were performed in 96-well, round-bottom microtiter plates with total reaction volumes of 50-200 μl, containing the indicated concentration of [^3H]GR113808 with or without competing unlabelled ligand in a binding buffer containing 50 mM Tris-HCl (pH 7.5 at RT), 1 mM EDTA, 5 mM EGTA, 2 mM MgCl2, 1 mM ascorbate, 0.1% BSA and 100 μM GTP. […]
// units: µM (pre-log); metric: Kd; scale: log10

COC(=O)c1ccc(CN2CC=C(c3c[nH]c4ccccc34)CC2)cc1 [Example 68]    1.06
COC(=O)c1ccc(CN2CC=C(c3c[nH]c4ccc(OC)cc34)CC2)cc1 [Example 9]    0.93
O=C(O)c1ccc(CN2CC=C(c3c[nH]c4ccccc34)CC2)cc1 [Example 69]    1.91
COC(=O)c1ccc(CN2CCN(CCCCC34CCCc5cccc(c53)NC4=O)CC2)cc1 (stereo not drawn) [Example 75]    1.20

Any idea what log10 Kd came out for CCOC(=O)CCCN1CC=C(c2c[nH]c3ccccc23)CC1 [Example 70] on human 5-HT7(a) receptors (Homo sapiens)?
-0.18

Enter reported log10 Kd observed with human 5-HT7(a) receptors (Homo sapiens) for O=C(O)c1ccc(CN2CCN(CCCCC34CCCc5cccc(c53)NC4=O)CC2)cc1 (stereo not drawn) [Example 76]
2.13

// data source = patent US20090029979A1
